Kindly supply the reported IC50 values for the records listed here.
Protein target, amino acids: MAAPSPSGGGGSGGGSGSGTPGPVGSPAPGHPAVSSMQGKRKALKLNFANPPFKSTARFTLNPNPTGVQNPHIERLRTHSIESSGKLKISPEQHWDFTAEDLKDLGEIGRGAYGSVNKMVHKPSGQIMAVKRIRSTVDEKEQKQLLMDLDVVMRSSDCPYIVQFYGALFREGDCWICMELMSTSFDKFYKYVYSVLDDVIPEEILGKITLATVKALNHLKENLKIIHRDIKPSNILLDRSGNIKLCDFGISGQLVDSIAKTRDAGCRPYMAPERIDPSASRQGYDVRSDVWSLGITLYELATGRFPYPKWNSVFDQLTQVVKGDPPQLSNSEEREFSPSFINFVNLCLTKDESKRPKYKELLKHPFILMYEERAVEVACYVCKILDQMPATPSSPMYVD

IC50 recorded for this molecule, CCCS(=O)(=O)Nc1c(F)ccc(C(=O)c2c[nH]c3ncc(-c4cnc(C5CCC5)nc4)cc23)c1F [Example 5] , is 100 to 1000 nM

What the record says about O=C(c1c(F)cc(F)c(NS(=O)(=O)Cc2ccccc2)c1F)c1c[nH]c2ncc(-c3cnc(C4CC4)nc3)cc12 [Example 14] : IC50 is < 100 nM

// CCCS(=O)(=O)Nc1c(F)ccc(C(=O)c2c[nH]c3ncc(-c4cnc(C5CC5)nc4C)cc23)c1F [Example 11] : IC50 value = < 100 nM

Reference source for all entries: patent US12466826B2
